Cited source for all entries: patent US11236078B2

# ASSAYED_SYSTEM: rat Nav1.2 (rNav1.2) (Rattus norvegicus)
# Construct: expressed in transfected cells
# PROTOCOL_DETAILS: rNav1.2 slow inactivation block, manual patchclamp
# Type: cell-based
# CONDITION_LABEL: HEK 293F cells stably expressing rNav1.2
TEST_READOUT: IC50

Guide cases for IC50, answers given:
O=C(O)c1cc(Oc2cc(F)c(S(=O)(=O)Nc3ncns3)cc2F)cc(C(F)(F)F)c1 = > 10000 nM
CCOC(=O)c1cc(Oc2cc(F)c(S(=O)(=O)Nc3ncns3)cc2F)cc(C(F)(F)F)c1 = > 10000 nM
O=S(=O)(Nc1ncns1)c1ccc(Oc2cc(C(F)(F)F)cc(C(F)(F)F)c2)c(Cl)c1 = > 10000 nM

Query string: Reported IC50 for rat Nav1.2 (rNav1.2) (Rattus norvegicus), given `O=C(NCc1cc(F)c(Oc2cc(C(F)(F)F)cc(C(F)(F)F)c2)cc1F)c1nncs1` ?
Result string: ~1250 nM

Query string: Lab request: please report IC50 under test system rat Nav1.2 (rNav1.2) (Rattus norvegicus) for `O=S(=O)(Nc1ncns1)c1cc(F)c(Oc2cc(Cl)cc(C(F)(F)F)c2)cc1F`
Result string: > 10000 nM

Query string: For rat Nav1.2 (rNav1.2) (Rattus norvegicus), provide IC50 of `O=S(=O)(Nc1ncns1)c1cc(F)c(Oc2cc(F)cc(Cl)c2)cc1F` please.
Result string: > 32000 nM

###

# ASSAYED_SYSTEM: human Nav1.7 (hNav1.7) (Homo sapiens, UniProt Q15858)
# Construct: expressed in transfected cells
# Sequence (Q15858 whole entry): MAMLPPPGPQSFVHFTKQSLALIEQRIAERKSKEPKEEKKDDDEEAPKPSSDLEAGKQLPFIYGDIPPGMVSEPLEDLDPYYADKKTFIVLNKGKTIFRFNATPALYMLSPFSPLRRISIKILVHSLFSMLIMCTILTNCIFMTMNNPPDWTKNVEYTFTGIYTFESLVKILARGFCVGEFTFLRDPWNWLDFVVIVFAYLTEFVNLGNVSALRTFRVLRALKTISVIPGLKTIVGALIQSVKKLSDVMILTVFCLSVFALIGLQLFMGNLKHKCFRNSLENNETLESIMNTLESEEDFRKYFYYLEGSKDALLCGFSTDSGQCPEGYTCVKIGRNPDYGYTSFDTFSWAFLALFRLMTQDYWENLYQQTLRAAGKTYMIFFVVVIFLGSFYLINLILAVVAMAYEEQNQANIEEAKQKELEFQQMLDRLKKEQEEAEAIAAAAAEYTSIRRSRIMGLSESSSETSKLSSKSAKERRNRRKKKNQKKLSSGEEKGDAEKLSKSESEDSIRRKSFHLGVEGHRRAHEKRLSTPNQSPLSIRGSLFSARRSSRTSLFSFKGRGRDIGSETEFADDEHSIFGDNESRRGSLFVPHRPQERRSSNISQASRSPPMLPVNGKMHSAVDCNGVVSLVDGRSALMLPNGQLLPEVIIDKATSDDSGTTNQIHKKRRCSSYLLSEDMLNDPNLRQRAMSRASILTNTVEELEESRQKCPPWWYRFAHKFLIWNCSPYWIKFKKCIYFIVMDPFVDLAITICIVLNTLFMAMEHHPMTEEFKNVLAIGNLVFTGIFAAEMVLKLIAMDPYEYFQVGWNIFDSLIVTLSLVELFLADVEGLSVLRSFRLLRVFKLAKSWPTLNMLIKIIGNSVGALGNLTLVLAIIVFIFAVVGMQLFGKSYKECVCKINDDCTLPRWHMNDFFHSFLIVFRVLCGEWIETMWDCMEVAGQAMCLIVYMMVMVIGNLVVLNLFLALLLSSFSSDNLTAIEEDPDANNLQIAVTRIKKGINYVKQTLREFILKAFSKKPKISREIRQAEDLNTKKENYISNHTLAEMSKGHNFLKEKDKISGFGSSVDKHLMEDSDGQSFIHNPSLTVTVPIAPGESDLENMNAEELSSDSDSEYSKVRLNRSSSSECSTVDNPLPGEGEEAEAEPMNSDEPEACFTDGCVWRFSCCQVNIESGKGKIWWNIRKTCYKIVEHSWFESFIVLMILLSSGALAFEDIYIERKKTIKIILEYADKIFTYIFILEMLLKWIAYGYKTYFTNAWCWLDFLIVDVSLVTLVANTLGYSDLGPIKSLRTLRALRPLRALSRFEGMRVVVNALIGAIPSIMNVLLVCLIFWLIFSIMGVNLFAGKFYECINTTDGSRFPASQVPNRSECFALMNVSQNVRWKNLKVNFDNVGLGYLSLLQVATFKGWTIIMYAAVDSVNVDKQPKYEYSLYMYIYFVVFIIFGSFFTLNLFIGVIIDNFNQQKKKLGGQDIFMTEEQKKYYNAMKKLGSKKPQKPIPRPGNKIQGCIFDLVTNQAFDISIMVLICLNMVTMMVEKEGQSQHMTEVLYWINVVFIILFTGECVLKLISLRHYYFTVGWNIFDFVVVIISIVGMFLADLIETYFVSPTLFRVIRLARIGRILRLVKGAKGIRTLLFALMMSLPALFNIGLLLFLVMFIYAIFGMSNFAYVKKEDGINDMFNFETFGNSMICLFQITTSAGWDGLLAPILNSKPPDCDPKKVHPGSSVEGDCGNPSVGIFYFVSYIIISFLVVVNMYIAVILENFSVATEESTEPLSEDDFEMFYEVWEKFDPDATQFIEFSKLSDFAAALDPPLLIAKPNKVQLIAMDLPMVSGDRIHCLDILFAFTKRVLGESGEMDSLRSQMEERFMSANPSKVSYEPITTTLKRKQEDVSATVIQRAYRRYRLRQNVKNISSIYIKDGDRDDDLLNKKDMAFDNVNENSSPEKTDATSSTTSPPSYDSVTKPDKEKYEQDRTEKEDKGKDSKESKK
# Sequence (Q07699 19-218 partner): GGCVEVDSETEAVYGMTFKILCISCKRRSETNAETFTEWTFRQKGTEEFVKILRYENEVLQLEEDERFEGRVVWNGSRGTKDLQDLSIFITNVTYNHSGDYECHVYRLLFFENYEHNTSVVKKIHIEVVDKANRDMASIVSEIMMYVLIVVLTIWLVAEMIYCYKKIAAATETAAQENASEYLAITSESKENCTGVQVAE
# PROTOCOL_DETAILS: hNav1.7 slow inactivation block, manual patchclamp
# Format: cell-based
# CONDITION_LABEL: HEK 293F cells stably expressing hNav1.7, slow inactivation induced in approximately 50% of channels
# Procedure: The generation of HEK 293F cell lines stably expressing human Nav1.7 (h Nav1.7), human Nav1.5 (hNav1.5) and rat Nav1.2 (r Nav1.2) was achieved by subcloning SCN9A, SCN5A, and SCN2A genes into inducible expression vectors followed by transfection into target cells using standard techniques. […] In some cases, the potency of compounds was measured using either the Patchliner automated patch clamp platform (Nanion) or manual patch clamp techniques. […]
TEST_READOUT: IC50

O=S(=O)(Nc1ncns1)c1ccc(Oc2cc(C(F)(F)F)cc(C(F)(F)F)c2)cc1 = ~39000 nM

Query string: # lookup: IC50 of `O=C(NCc1cc(F)c(Oc2cc(Br)cc(C(F)(F)F)c2)cc1F)c1ncns1`
Result string: 294 nM

Query string: Item `O=S(=O)(Nc1ccncn1)c1cc(F)c(Oc2cc(C(F)(F)F)cc(C(F)(F)F)c2)cc1F` has what recorded IC50?
Result string: ~9760 nM

###

// reported IC50 per item
# ASSAYED_SYSTEM: human Nav1.5 (hNav1.5) (Homo sapiens, UniProt Q14524)
# Construct: expressed in transfected cells
# Sequence (Q14524 whole entry): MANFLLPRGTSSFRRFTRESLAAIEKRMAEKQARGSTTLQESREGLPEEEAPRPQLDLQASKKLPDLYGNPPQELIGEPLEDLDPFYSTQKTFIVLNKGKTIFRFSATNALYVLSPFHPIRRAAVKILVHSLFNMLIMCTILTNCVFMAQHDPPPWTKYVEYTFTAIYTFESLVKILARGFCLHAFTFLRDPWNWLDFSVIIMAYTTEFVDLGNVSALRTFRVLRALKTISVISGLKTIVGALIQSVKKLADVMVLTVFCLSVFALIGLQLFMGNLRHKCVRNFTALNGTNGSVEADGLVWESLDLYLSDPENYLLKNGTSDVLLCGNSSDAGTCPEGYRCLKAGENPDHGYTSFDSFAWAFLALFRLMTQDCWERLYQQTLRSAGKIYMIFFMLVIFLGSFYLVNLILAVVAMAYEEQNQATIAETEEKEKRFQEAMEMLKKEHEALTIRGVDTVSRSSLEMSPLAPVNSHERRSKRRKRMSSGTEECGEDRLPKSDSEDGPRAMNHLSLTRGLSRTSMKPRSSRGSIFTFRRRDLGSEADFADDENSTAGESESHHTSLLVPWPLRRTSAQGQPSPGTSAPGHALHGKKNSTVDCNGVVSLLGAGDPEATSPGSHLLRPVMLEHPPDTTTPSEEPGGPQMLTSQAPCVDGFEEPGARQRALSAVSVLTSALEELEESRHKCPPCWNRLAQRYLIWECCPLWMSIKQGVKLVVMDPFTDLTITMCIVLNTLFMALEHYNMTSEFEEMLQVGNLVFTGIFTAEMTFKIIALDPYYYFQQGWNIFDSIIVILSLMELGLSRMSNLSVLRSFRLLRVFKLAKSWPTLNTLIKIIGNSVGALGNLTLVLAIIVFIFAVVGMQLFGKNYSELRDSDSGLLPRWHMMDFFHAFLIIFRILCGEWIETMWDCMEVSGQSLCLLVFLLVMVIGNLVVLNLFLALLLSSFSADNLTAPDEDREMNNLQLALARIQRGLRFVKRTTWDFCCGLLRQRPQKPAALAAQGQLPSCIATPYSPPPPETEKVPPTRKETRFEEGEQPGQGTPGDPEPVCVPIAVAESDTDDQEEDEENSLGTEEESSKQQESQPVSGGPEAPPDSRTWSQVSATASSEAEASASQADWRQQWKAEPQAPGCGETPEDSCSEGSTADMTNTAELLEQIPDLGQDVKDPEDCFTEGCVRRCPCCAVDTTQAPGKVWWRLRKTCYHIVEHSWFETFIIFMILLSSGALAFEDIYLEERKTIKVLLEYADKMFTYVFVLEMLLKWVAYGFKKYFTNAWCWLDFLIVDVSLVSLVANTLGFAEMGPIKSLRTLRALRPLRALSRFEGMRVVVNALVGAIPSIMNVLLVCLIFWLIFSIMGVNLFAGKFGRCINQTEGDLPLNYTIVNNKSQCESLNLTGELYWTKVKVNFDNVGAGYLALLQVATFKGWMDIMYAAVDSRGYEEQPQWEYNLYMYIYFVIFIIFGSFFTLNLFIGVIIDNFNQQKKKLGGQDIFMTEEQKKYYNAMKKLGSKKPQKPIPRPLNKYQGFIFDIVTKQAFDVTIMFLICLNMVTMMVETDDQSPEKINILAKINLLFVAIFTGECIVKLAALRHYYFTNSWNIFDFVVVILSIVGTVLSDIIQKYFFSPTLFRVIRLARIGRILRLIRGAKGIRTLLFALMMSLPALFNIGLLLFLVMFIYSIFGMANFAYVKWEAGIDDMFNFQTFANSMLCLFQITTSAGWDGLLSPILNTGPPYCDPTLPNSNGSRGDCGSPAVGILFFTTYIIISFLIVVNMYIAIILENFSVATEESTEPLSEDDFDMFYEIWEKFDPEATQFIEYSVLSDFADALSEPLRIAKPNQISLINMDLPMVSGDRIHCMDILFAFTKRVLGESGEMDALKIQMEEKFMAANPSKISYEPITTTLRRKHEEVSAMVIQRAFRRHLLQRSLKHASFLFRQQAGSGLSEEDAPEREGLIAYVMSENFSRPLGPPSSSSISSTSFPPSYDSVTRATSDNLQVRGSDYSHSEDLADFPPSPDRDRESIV
# PROTOCOL_DETAILS: hNav1.5 slow inactivation block, manual patchclamp
# Assay type: cell-based
# CONDITION_LABEL: HEK 293F cells stably expressing hNav1.5

O=C(NCc1cc(F)c(Oc2cc(Br)cc(C(F)(F)F)c2)cc1F)c1ncns1 = < 1000 nM
CN(C)C(=O)c1cc(Oc2cc(F)c(S(=O)(=O)Nc3ncns3)cc2F)cc(C(F)(F)F)c1 = > 32000 nM
CN(c1ncns1)S(=O)(=O)c1cc(F)c(Oc2cc(Br)cc(C(F)(F)F)c2)cc1F = > 3200 nM

Query string: Given `O=S(=O)(Nc1ncns1)c1cc(F)c(Oc2cc(F)cc(Cl)c2)cc1F` , state its recorded IC50.
Result string: ~7570 nM

###

# ASSAYED_SYSTEM: human Nav1.7 (hNav1.7) (Homo sapiens, UniProt Q15858)
# Construct: expressed in transfected cells
# PROTOCOL_DETAILS: hNav1.7 slow inactivation block, manual patchclamp
# Type: cell-based
# CONDITION_LABEL: HEK 293F cells stably expressing hNav1.7, slow inactivation induced in approximately 50% of channels
Overview of reported IC50 across a group of molecules:

Illustrative cases are given below, each with its answer.
O=S(=O)(Nc1ncns1)c1cc(F)c(Oc2cc(F)cc(F)c2)cc1F = ~3960 nM
O=C(Cc1cccc(-c2cc(C(F)(F)F)cc(C(F)(F)F)c2)c1)Nc1ncns1 = ~383 nM
CS(=O)(=O)NC(=O)c1cc(F)c(Oc2cc(C(F)(F)F)cc(C(F)(F)F)c2)cc1F = ~10300 nM

Query string: Bench note: what IC50 did `CS(=O)(=O)NCc1cc(F)c(Oc2cc(C(F)(F)F)cc(C(F)(F)F)c2)cc1F` show?
Result string: ~1260 nM

###

Overview of recorded IC50 for various molecules
# ASSAYED_SYSTEM: rat Nav1.2 (rNav1.2) (Rattus norvegicus, UniProt P04775)
# Construct: expressed in transfected cells
# PROTOCOL_DETAILS: rNav1.2 slow inactivation block, automated patchclamp
# Assay type: cell-based
# CONDITION_LABEL: HEK 293F cells stably expressing rNav1.2

Query string: Record request: IC50 value, item `O=S(=O)(Nc1cccnn1)c1cc(F)c(Oc2cc(C(F)(F)F)cc(C(F)(F)F)c2)cc1F`
Result string: ~25200 nM

Query string: Quick check: IC50 of `N#Cc1cc(Oc2cc(F)c(S(=O)(=O)Nc3ncns3)cc2F)cc(C(F)(F)F)c1` ?
Result string: ~32000 nM

Query string: So what's the measured IC50 for this one? `O=S(=O)(Nc1ncns1)c1ccc(Oc2cc(C(F)(F)F)cc(C(F)(F)F)c2)c(Cl)c1`
Result string: > 32000 nM

Query string: Looking for the measured IC50 of `O=C(Cc1cc(F)c(Oc2cc(C(F)(F)F)cc(C(F)(F)F)c2)cc1F)Nc1ncns1` , can you help?
Result string: > 32000 nM

Query string: Name the reported IC50 value associated with the molecule `O=S(=O)(Nc1ncns1)c1cc(F)c(Oc2cc(F)cc(F)c2)cc1F`
Result string: > 32000 nM

Query string: Given the entry `CCOC(=O)c1cc(Oc2cc(F)c(S(=O)(=O)Nc3ncns3)cc2F)cc(C(F)(F)F)c1` , report its measured IC50.
Result string: > 32000 nM

Query string: Which IC50 value is on record for `O=S(=O)(Nc1ccncn1)c1cc(F)c(Oc2cc(C(F)(F)F)cc(C(F)(F)F)c2)cc1F` ?
Result string: > 32000 nM

Query string: Give its IC50 value. Item: `O=S(=O)(Nc1ncns1)c1cc(F)c(Oc2cc(C3CNC3)cc(C(F)(F)F)c2)cc1F`
Result string: ~1220 nM

###

# ASSAYED_SYSTEM: human Nav1.7 (hNav1.7) (Homo sapiens, UniProt Q15858)
# Construct: expressed in transfected cells
# PROTOCOL_DETAILS: hNav1.7 slow inactivation block, automated patchclamp
# Type: cell-based
# CONDITION_LABEL: HEK 293F cells stably expressing hNav1.7, slow inactivation induced in approximately 50% of channels
Each entry below carries its recorded IC50.

Known IC50 results, listed for orientation:
O=C(Nc1nncs1)c1cc(F)c(Oc2cc(C(F)(F)F)cc(C(F)(F)F)c2)cc1F = > 32000 nM
CS(=O)(=O)NCc1cc(F)c(Oc2cc(C(F)(F)F)cc(C(F)(F)F)c2)cc1F = 5780 nM
O=S(=O)(Nc1ncns1)c1cc(F)c(Oc2cc(Cl)cc(C(F)(F)F)c2)cc1F = ~11900 nM

Query string: Identify the measured IC50 of `O=C(Cc1cc(F)c(Oc2cc(C(F)(F)F)cc(C(F)(F)F)c2)cc1F)Nc1ncns1` for human Nav1.7 (hNav1.7) (Homo sapiens, UniProt Q15858).
Result string: > 32000 nM

Query string: Notebook: pull reported IC50 for human Nav1.7 (hNav1.7) (Homo sapiens, UniProt Q15858), entry `O=S(=O)(Nc1ncns1)c1ccc(Oc2cc(C(F)(F)F)cc(C(F)(F)F)c2)c(F)c1`
Result string: > 32000 nM

Query string: Kindly state the measured IC50 obtained for `CCOC(=O)c1cc(Oc2cc(F)c(S(=O)(=O)Nc3ncns3)cc2F)cc(C(F)(F)F)c1` with human Nav1.7 (hNav1.7) (Homo sapiens, UniProt Q15858).
Result string: ~37200 nM

###

# ASSAYED_SYSTEM: rat Nav1.2 (rNav1.2) (Rattus norvegicus)
# Construct: expressed in transfected cells
# PROTOCOL_DETAILS: rNav1.2 slow inactivation block, manual patchclamp
# Assay type: cell-based
# CONDITION_LABEL: HEK 293F cells stably expressing rNav1.2
# Experimental: The generation of HEK 293F cell lines stably expressing human Nav1.7 (h Nav1.7), human Nav1.5 (hNav1.5) and rat Nav1.2 (r Nav1.2) was achieved by subcloning SCN9A, SCN5A, and SCN2A genes into inducible expression vectors followed by transfection into target cells using standard techniques. […] In some cases, the potency of compounds was measured using either the Patchliner automated patch clamp platform (Nanion) or manual patch clamp techniques. […]
TEST_READOUT: IC50

For orientation, consider the following solved cases.
O=S(=O)(Nc1ncns1)c1ccc(Oc2cc(C(F)(F)F)cc(C(F)(F)F)c2)c(F)c1 = > 10000 nM
CN1CCC[C@H]1C(=O)NCc1cccc(-c2cc(C(F)(F)F)cc(C(F)(F)F)c2)c1 = 176 nM

Query string: For the compound `O=C(Cc1cccc(-c2cc(C(F)(F)F)cc(C(F)(F)F)c2)c1)Nc1ncns1` , what IC50 is on record?
Result string: ~389 nM
